System: ISC-enriched organoids
Assay Info: Primary screen, 384-well 2.5-D organoid differentiation (ENR+CD, 6 days): basal lysozyme secretion (LYZ.NS)
Type: cell-based, murine
Settings: Dose 2.00 uM; standard z score of FC
Measurement Kind: Z.LYZ.NS
Please reply with the number alone, leaving off any unit.

Cc1[nH]c2ccccc2c1CCNCc1ccc(/C=C/C(=O)NO)cc1    −1.329
C[C@]1(O)C[C@@H](c2nc(-c3ccc4ccc(-c5ccccc5)nc4c3)c3c(N)nccn32)C1    −1.882

Prompt line: Provide value of Z.LYZ.NS for this record tested with ISC-enriched organoids: CC(C)NC[C@@H](C(=O)N1CCN(c2ncnc3c2[C@H](C)C[C@H]3O)CC1)c1ccc(Cl)cc1
Response line: −0.675

Prompt line: Provide value of Z.LYZ.NS for this record tested with ISC-enriched organoids: Cc1ccc2c(=O)c3cccc(CC(=O)O)c3oc2c1C
Response line: −0.334
